B1: library; a variant is named by its letters at N, in order (parent)
chain: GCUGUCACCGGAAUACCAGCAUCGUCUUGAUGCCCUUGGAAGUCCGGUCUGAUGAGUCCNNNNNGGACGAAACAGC

# Variants of: B1
# assay-remarks: FACS-Seq fitted mean relative fluorescence mCherry/BFP without ligand (log10 relative fluorescence); higher = higher reporter protein expression
# condition-set: HEK293T, ligand present: no
Provide the recorded FACS-Seq fitted mean (log10) for the entries that follow.
Enter a number only.

Per the record, GAGAU has FACS-Seq fitted mean (log10) of 0.787

Value of FACS-Seq fitted mean (log10) reported for the variant ACCGG is 0.955

// FACS-Seq fitted mean (log10) value for AUUAC : 1.05

GAACG yielded FACS-Seq fitted mean (log10) of 1.01

FACS-Seq fitted mean (log10) reading for AUGCA : 0.792

Recorded FACS-Seq fitted mean (log10) (variant CCUAU ): 0.969

Sample CCCUC ; FACS-Seq fitted mean (log10) observed: 0.893

Looking up AUAGA , I found its FACS-Seq fitted mean (log10) recorded as 0.592

So for CGAAU , the logged FACS-Seq fitted mean (log10) turned out to be 0.071

Memo: ACAUG , reported FACS-Seq fitted mean (log10): 0.862

# FACS-Seq fitted mean (log10) (variant: UGCCC ) is 0.979

# FACS-Seq fitted mean (log10) of UCAAU = 0.686

Reported FACS-Seq fitted mean (log10) of AUAUA : -0.278

// AAGUC : FACS-Seq fitted mean (log10) value = 0.771

Value of measured FACS-Seq fitted mean (log10) for the entry GCAGU : -0.266

Looking up CAAGU , I see its FACS-Seq fitted mean (log10) listed as 0.759

variant CAGUA , FACS-Seq fitted mean (log10) observed: 0.206

FACS-Seq fitted mean (log10) in this record for AGCGA : 0.281

Please fill in: FACS-Seq fitted mean (log10) reported for AAAUC = 0.498

Input UUCGU . Output FACS-Seq fitted mean (log10): 0.93

Notebook: AUCGA , FACS-Seq fitted mean (log10) read as 0.863

Entry CCCCU — recorded FACS-Seq fitted mean (log10) = 0.771

Sample CUCCC ; FACS-Seq fitted mean (log10) observed: 0.836

The value of FACS-Seq fitted mean (log10) measured for the variant GUUGU turned out to be 0.526

The reported FACS-Seq fitted mean (log10) of the variant GAGCG was 0.793

Reported FACS-Seq fitted mean (log10) for UUAAG was 0.769

# FACS-Seq fitted mean (log10) (variant: GUAAU ) is 0.914

Given item CAAGA , the value recorded as its FACS-Seq fitted mean (log10) is 0.32

FACS-Seq fitted mean (log10) reported for this variant UAACU : 0.803

The variant listed as GUACU has a reported FACS-Seq fitted mean (log10) of 0.869

// FACS-Seq fitted mean (log10) value for AAAAA : -0.362

Note to self: FACS-Seq fitted mean (log10) recorded for UGCGA was 0.439

Recorded FACS-Seq fitted mean (log10) (variant UAACA ): 0.606

For CUCAA the variant record lists FACS-Seq fitted mean (log10) as 0.816

Item: CACGC | FACS-Seq fitted mean (log10): 0.917

Field FACS-Seq fitted mean (log10) (entry AAACC ) reads 0.153

The variant listed as CCGUA has a reported FACS-Seq fitted mean (log10) of 0.864

Summary for this variant, CCGGA : FACS-Seq fitted mean (log10) is 0.978

The value of FACS-Seq fitted mean (log10) measured for the variant UCCAU turned out to be 1.01

The recorded FACS-Seq fitted mean (log10) for GUCUG is 0.742

// sample ACGAG , its FACS-Seq fitted mean (log10) was 0.428

Entry CCGAA ; FACS-Seq fitted mean (log10) = -0.229

# variant CACUU ; its FACS-Seq fitted mean (log10) = 0.741

Lookup result for UCAAC ; measured FACS-Seq fitted mean (log10): 0.851

Note to self: FACS-Seq fitted mean (log10) recorded for CGCUU was 0.746

Summary for this variant, AAAAU : FACS-Seq fitted mean (log10) is 0.464
